Reported LD50 values for the following molecules.
Experiment: Acute toxicity test (mouse, oral administration)
Conditions: in vivo, male ICR mice, fasted 18 hours
Write the value in mg/kg as a bare number.

# example entries with known answers
>>> observed_measurement("CCN(CC)CCn1c(Cc2cc(OC)ccc2OC)nc2ccccc2c1=O [Compound 13]")
700
>>> observed_measurement("COc1ccc([C@@H]2Sc3ccccc3N(CCN(C)C)C(=O)[C@@H]2OC(C)=O)cc1 [diltiazem, reference compound]")
650

Q: Identify LD50 associated with the molecule COc1ccc(OC)c(Cc2nc3ccc(C)cc3c(=O)n2CCN2CCCC2)c1 [Compound 31]
A: 1000

Q: Identify measured LD50 corresponding to CCC(C)Oc1ccc2nc(Cc3cc(OC)ccc3OC)n(CCN(C)C)c(=O)c2c1 (stereo not shown) [Compound 63]
A: 1200

----------
Assay: Acute toxicity test (mouse, oral administration)
Conditions: in vivo, male ICR mice, fasted 18 hours
REPORTED METRIC: LD50 (mg/kg)
// units = mg/kg; emit number, no label

Worked set:
>>> observed_measurement("COc1ccc(Cc2nc3ccc(OC(C)C)cc3c(=O)n2CCN(C)C)cc1 [Compound 50]")
700
>>> observed_measurement("COc1ccc(OC)c(Cc2nc3ccc(OC(C)C)cc3c(=O)n2CCN(C)C)c1 [Compound 47]")
750
>>> observed_measurement("COc1ccc(Cc2nc3cc(OC)c(OC(C)C)cc3c(=O)n2CCN(C)C)cc1 [Compound 82]")
750

We next turn to a different compound, shown below.
Q: Give reported LD50 value for COc1ccc(OC)c(Cc2nc3ccc(OC(C)C)cc3c(=O)n2CCN(C)CCc2ccc(OC)c(OC)c2)c1 [Compound 102]
A: 1000

----------
Tested on: calcium induced contraction of the isolated thoracic aorta in rats
Test: Calcium antagonistic activity: relaxation of calcium induced contraction of isolated thoracic aorta
Type: cell-based, rat (male Wistar strain)
Settings: spiral specimen of rat thoracic aorta, 80 mM potassium, 10 mM Ca++; relaxing activity; read-out: Minimum effective concentration
REPORTED METRIC: minimal effective concentration (µM)
Kindly provide the numeric value in µM only, without the unit symbol.

>>> observed_measurement("COc1ccc(Cc2nc3ccc(OC(C)C)cc3c(=O)n2CCN(C)C)cc1")
0.3

Q: Item `COc1ccc(OC)c(Cc2nc3ccc(OC(C)C)cc3c(=O)n2CCCN(C)C)c1` : provide minimal effective concentration
A: 0.3

Q: Provide one value: measured minimal effective concentration of `COc1ccc(OC)c(Cc2nc3ccccc3c(=O)n2CCN(C)CCc2ccc(OC)c(OC)c2)c1`
A: 0.03

Q: Give the measured minimal effective concentration for COc1ccc([C@@H]2Sc3ccccc3N(CCN(C)C)C(=O)[C@@H]2OC(C)=O)cc1 [diltiazem, reference compound]
A: 0.3

Q: Quote minimal effective concentration reported for `COc1ccc(OC)c(Cc2nc3ccc(I)cc3c(=O)n2CCN(C)CCc2ccc(OC)c(OC)c2)c1` please.
A: 0.03

Q: Supply minimal effective concentration value. Item: `CCOc1ccc2nc(Cc3cc(OC)ccc3OC)n(CCN(C)CCc3ccc(OC)c(OC)c3)c(=O)c2c1`
A: 0.03

Q: Provide only the value of recorded minimal effective concentration for CCC(C)Oc1ccc2nc(Cc3cc(OC)ccc3OC)n(CCCN(C)C)c(=O)c2c1 (centres unmarked)
A: 0.3

Q: Find the measured minimal effective concentration of `COc1ccc(OC)c(Cc2nc3ccc(OC(C)C)cc3c(=O)n2CCN(C)CCc2ccc(OC)c(OC)c2)c1` and report it.
A: 0.03
